Target: T1, cynomolgus SEMA4A expressed on expi293 cells (UniProt ID G7NV79) (cynomolgus, UniProt Q9H3S1 33-761 (human entry))
T1 construct: Transient transfection in expi293 cells; also called cyno SEMA4A
T1 chain: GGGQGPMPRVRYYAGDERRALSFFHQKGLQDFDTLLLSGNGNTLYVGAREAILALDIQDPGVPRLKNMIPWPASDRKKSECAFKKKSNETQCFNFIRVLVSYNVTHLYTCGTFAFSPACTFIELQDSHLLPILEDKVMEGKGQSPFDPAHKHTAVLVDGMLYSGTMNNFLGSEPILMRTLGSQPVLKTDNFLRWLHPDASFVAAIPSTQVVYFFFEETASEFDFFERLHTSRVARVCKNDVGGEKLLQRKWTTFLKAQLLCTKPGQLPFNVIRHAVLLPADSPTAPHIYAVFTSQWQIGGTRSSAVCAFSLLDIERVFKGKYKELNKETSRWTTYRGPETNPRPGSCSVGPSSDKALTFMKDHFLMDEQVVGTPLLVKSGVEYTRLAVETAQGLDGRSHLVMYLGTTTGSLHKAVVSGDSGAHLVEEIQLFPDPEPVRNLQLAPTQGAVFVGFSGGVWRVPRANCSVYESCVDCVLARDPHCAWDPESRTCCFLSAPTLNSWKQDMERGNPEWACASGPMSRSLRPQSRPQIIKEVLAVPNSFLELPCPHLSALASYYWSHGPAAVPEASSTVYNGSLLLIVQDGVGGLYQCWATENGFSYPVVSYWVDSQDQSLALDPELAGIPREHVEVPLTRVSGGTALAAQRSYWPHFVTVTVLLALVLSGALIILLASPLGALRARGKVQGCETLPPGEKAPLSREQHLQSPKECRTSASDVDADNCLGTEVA
Procedure text: Mirrorball direct binding, dilution series on expi293 cells transiently transfected with cyno SEMA4A, anti-human Alexa Fluor 647
Reported property: binding result

Binder	Result
5Hg1-5Lg2 human Alya IgG1 (antibody, V domains shown, Humanised 5E3; human IgG1 Alya constant (239iCys, S442C, EU), lambda light chain; purified, unconjugated) VH: QVQLVQSGAEVKKPGASVKVSCKASGYTFTDYWMHWVRQAPGQGLEWMGAIDTSDSYTSYNQKFKGRVTMTRDTSTSTVYMELSSLRSEDTAVYYCARDYGNFYYYAMDYWGQGTLVTVSS VL: QAVVTQEPSLTVSPGGTVTLTCRSSTGAVTTSNYANWFQQKPGQAPRTLIYGTNNRAPWTPARFSGSLLGGKAALTLLGAQPEDEAEYYCALWYSNHWVFGGGTKLTVL	binds
5Hg2-5Lg6 human Alya IgG1 (antibody, V domains shown, Humanised 5E3; human IgG1 Alya constant (239iCys, S442C, EU), lambda light chain; purified, unconjugated) VH: QVQLVQSGAEVKKPGASVKVSCKASGYTFTDYWMHWVRQAPGQRLEWMGAIDTSDSYTSYNQKFKGRVTITRDTSASTAYMELSSLRSEDTAVYYCARDYGNFYYYAMDYWGQGTLVTVSS VL: SYELTQPSSVSVSPGQTARITCRSSTGAVTTSNYANWFQQKPGQAPVLVIYGTNNRAPGIPERFSGSSSGTTVTLTISGAQVEDEADYYCALWYSNHWVFGGGTKLTVL	binds
5Hg4-5Lg5 human Alya IgG1 (antibody, V domains shown, Humanised 5E3; human IgG1 Alya constant (239iCys, S442C, EU), lambda light chain; purified, unconjugated) VH: QVQLVQSGSELKKPGASVKVSCKASGYTFTDYWMHWVRQAPGQGLEWMGAIDTSDSYTSYNQKFKGRFVFSLDTSVSTAYLQICSLKAEDTAVYYCARDYGNFYYYAMDYWGQGTLVTVSS VL: QSVVTQPPSVSGAPGQRVTISCRSSTGAVTTSNYANWYQQLPGTAPKLLIYGTNNRAPGVPDRFSGSKSGASASLAITGLQAEDEADYYCALWYSNHWVFGGGTKLTVL	binds
